Sourced from the supplement of paper PMC11061612

Parameter: Bliss excess. Scope: all listed entries.
System: SK-OV-3 (Ovarian Carcinoma);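 further: after 72 h of two-drug dosing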
Assay: Bliss excess, mean over the matrix (fraction); higher = more synergy
Enter the number alone.

Worked examples follow.
compound | resultNumber
CN(CCO)CC[C@H](CSc1ccccc1)Nc1ccc(S(=O)(=O)NC(=O)c2ccc(N3CCC([C@@H](O)c4ccccc4-c4ccc(Cl)cc4)CC3)cc2)cc1S(=O)(=O)C(F)(F)F [AZD4320] + CCN(CCO)CCCOc1ccc2c(Nc3cc(CC(=O)Nc4cccc(F)c4)[nH]n3)ncnc2c1 [AZD2811] (first compound max 1 µM, 7x7, partner max 1 µM) | -0.0522
Cc1cc2ncnn2cc1Nc1ncc2c(n1)n(C1CCOCC1)c(=O)n2C [AZD7648] + CN(C)CCCOc1ccc(-c2ccc3ncc4c(c3c2)n(C2CCOCC2)c(=O)n4C)cn1 [AZD0156] (first compound max 10 µM, 7x7, partner max 1 µM) | -0.0289
Cn1cnc2c(F)c(Nc3ccc(Br)cc3Cl)c(C(=O)NOCCO)cc21 [Selumetinib] + C[C@@H]1COCCN1C2=NC(=NC(=C2)C3(CC3)[S@](=N)(=O)C)C4=C5C=CNC5=NC=C4 [AZD6738] (first compound max 10 µM, 7x7, partner max 10 µM) | -0.0424

Kindly consider the entry below.
// sample N#Cc1cnc(Nc2cc(NC[C@H]3CNCCO3)c(C(F)(F)F)cn2)cn1 [SRA737] + O=c1[nH]cc(F)c(=O)[nH]1 [5-Fluorouracil] (first compound max 10 µM, 7x7, partner max 20 µM) , its Bliss excess was -0.0597
